Test system: SR leukemia
Test: NCI-60 one-dose screen, 48 h (100 = growth as untreated, 0 = no growth, -100 = all killed)
Conditions: 10 µM unless noted
The panel holds about 83,000 compounds, 20% with a hit somewhere; the sample as a whole holds those more often. Calls of active or inactive are those of the source. How the source made its calls: active means growth percent below 10; inactive means the rest.
Listing: growth of selected molecules

Worked examples, 2 molecules total:
COc1ccc(C(=O)Nc2ncc(Cc3ccccc3Cl)s2)cc1 16.4% (inactive)
O=C(O)c1ccc(-n2cc(CNc3cc(F)c(F)c(F)c3)c(-c3cccc(F)c3)n2)cc1 80.4% (inactive)

For the molecule shown here, COc1cc(/C=C2\C(=O)Nc3ccccc32)ccc1OCc1ccc(Cl)cc1 , give the reported growth. 93.8% (inactive)

For the molecule shown here, CCCCCc1ccc(S(=O)(=O)Nc2cccc(-c3csc(NC(=O)CNCCN(C)C)n3)c2)cc1 , give the reported growth. 22.2% (inactive)

For the molecule shown here, Cn1cc(-c2nc(N)nnc2-c2c[nH]c3ccc(Br)cc23)c2cc(Br)ccc21 , give the reported growth. 20.4% (inactive)

For the molecule shown here, CC(=O)c1cc(C(=O)N2c3ccccc3Sc3ccccc32)n2ccc3ccccc3c12 , give the reported growth. 16.6% (inactive)

* * *

Test system: A498 renal
Experiment: NCI-60 one-dose screen, 48 h (100 = growth as untreated, 0 = no growth, -100 = all killed)
Settings: 10 µM unless noted
This is part of a sample that, as a whole, favours compounds with a hit. Of some 83,000 tested, about 20% had one in any assay.
Rule: growth under 40% gives NOT MET, otherwise MET.

Answered examples (8):
Compound	Group label
CN(C)CCNC(=O)c1ccc(-c2nc3ccc4[nH]ncc4c3c3c2COCC3)cc1	NOT MET
CCOC(=O)C1=NNC(c2ccc(Cl)cc2)C1C(=O)N1C(=S)NC(=O)C1CC(C)C (centres undefined)	MET
NC(N)=Nc1ccc(Oc2cccc(NC(N)=Nc3ccc(I)cc3F)c2)cc1	MET
CC(=O)c1ccc(Nc2nc(SCC(C)C)nc(-c3ccccc3)c2C#N)cc1	MET
CS(=O)(=O)c1ncc(-c2ccccc2)cn1	MET
COc1c(N2CC3CCCNC3C2)c(F)cc2c(=O)c(C(=O)N/N=C/c3ccccc3)cn(C3CC3)c12 (centres undefined)	MET
CCc1nn2c(C)cc(C)nc2c1Cc1ccc(/C=C/CN2CCN(CCOCCOCCN3CCN(C/C=C/c4ccc(Cc5c(CC)nn6c(C)cc(C)nc56)cc4)CC3)CC2)cc1	MET
N#Cc1cnc2ccc(-c3cnc(N)nc3)cc2c1N1CCc2cc(F)c(Cl)cc21	NOT MET

Confirm if growth reported for the compound Cn1cc(-c2nnc(N)nc2-c2c[nH]c3ccc(F)cc23)c2cc(F)ccc21 is 40% or above. MET

Confirm if growth reported for the compound CCc1cccc2c3c(sc12)C(c1ccc(OC)cc1)C(C#N)=C(/N=C/c1ccc(Cl)cc1)O3 (centres undefined) is 40% or above. NOT MET

Confirm if growth reported for the compound C=C(C)[C@@H]1CC[C@]2(C(=O)NCCCCCN(CCC#N)CCC#N)CC[C@]3(C)[C@H](CC[C@@H]4[C@@]5(C)CCC(=O)C(C)(C)[C@@H]5CC[C@]43C)[C@@H]12 is 40% or above. MET

* * *

System: SR leukemia
Experiment: NCI-60 one-dose screen, 48 h (100 = growth as untreated, 0 = no growth, -100 = all killed)
Settings: 10 µM unless noted
Compounds without any hit were thinned out: in the full panel of roughly 83,000, 20% have a hit.
Listing: growth of selected compounds
# unit: % | format: bare number

For the compound shown here, CC(C)c1ccc(NCc2cn(-c3ccc(C(=O)O)cc3)nc2-c2cc(C(F)(F)F)cc(C(F)(F)F)c2)cc1 , give the reported growth. 101

* * *

Tested on: SNB-19 CNS
Assay: NCI-60 one-dose screen, 48 h (100 = growth as untreated, 0 = no growth, -100 = all killed)
Conditions: 10 µM unless noted
About 83,000 compounds went through this panel and 20% of them were active in at least one assay; those are over-represented in the sample as a whole.
Rule: growth under 20% gives FALSE, otherwise TRUE.

Answered examples (5):
Compound	Target or system	Group label
O=C(NNc1nc2cc(F)ccc2n2c(CO)ccc12)c1cnccn1	SNB-19 CNS	TRUE
C=C(C)[C@@H]1CC[C@]2(COCCCNCCC#N)CC[C@]3(C)[C@H](CC[C@@H]4[C@@]5(C)CC[C@H](OCCCNCCC#N)C(C)(C)[C@@H]5CC[C@]43C)[C@@H]12	SNB-19 CNS	TRUE
C[C@@H]1C[C@H]2C(=O)O[C@@H](C)C(NC(=O)[C@H](Cc3cc(F)cc(F)c3)NC(=O)Nc3ccc(C4CC4)cc3F)C(=O)N3CCC[C@H]3C(=O)N3CCCC[C@H]3C(=O)N[C@@H](CO)C(=O)N2C1 (stereo partly drawn)	SNB-19 CNS	TRUE
O=C(Nc1ccc(F)c(F)c1)c1cc(-c2ccc(F)cc2F)ccc1O	SNB-19 CNS	FALSE
NC(N)=Nc1ccc(Oc2cccc(Nc3ccc(Br)c(C(F)(F)F)c3)c2)cn1	SNB-19 CNS	FALSE

Confirm if growth reported for the compound Cc1cccc2c3c(sc12)C(c1ccc(F)cc1)C(C#N)=C(/N=C/c1ccc(Cl)cc1)O3 (stereo not drawn) is 20% or above. TRUE

Confirm if growth reported for the compound O=C(Nc1ccc(Br)cc1)Nc1nc2ccc([N+](=O)[O-])cc2s1 is 20% or above. FALSE

Confirm if growth reported for the compound C[C@@H](Nc1c(C#N)cnc2ccc(-c3cnc(Cl)c(NS(C)(=O)=O)c3)cc12)c1ccccc1 is 20% or above. FALSE

* * *

Test system: UO-31 renal
Experiment: NCI-60 one-dose screen, 48 h (100 = growth as untreated, 0 = no growth, -100 = all killed)
Details: 10 µM unless noted
The panel holds about 83,000 compounds, 20% with a hit somewhere; the sample as a whole holds those more often.
Measured endpoint: growth (%)
# unit: % | format: bare number

For the compound shown here, O=C(Cn1c(-c2ccccc2)nc2cc(Cl)c(Cl)cc21)N=Nc1c(O)[nH]c2ccc(Cl)cc12 , give the reported growth. 73.7

For the compound shown here, COc1ccc(Cn2cc3c(c2-c2cc(OC)c(OC)c(OC)c2)CCc2c(CN4CCOCC4)noc2-3)cc1 , give the reported growth. 39.5

For the compound shown here, Cc1ccc(-c2cc3nc(C(Cl)Cl)nc(-c4cccs4)n3n2)cc1 , give the reported growth. 70.7

For the compound shown here, CCOC(=O)c1c(Nc2ccccc2)nn2c(-c3ccc(Cl)cc3)ccnc12 , give the reported growth. 64.8

For the compound shown here, COc1ccc(-c2nn(-c3ccc(S(C)(=O)=O)cc3)cc2/C=N/O)cc1 , give the reported growth. 97

For the compound shown here, O=C(CCn1c[n+](CC(=O)c2ccc(-c3ccccc3)cc2)c2ccccc21)Nc1cccc2cccnc12 , give the reported growth. 82.6

For the compound shown here, COc1cccc2c1CN(C(=O)c1ccc(O)c(C(=O)N3Cc4ccc(OCCC[P+](c5ccccc5)(c5ccccc5)c5ccccc5)cc4C3)c1)C2 , give the reported growth. 77.3

For the compound shown here, Nc1cc(F)ccc1NC(=O)c1ccc(NC(=O)C/C=C/c2cccnc2)cc1 , give the reported growth. 52.6

For the compound shown here, Oc1ccc(CSc2nnc(-c3ccc(Cl)cc3)n2-c2ccccc2)c2cccnc12 , give the reported growth. 0.657

* * *

Test system: SNB-75 CNS
Assay: NCI-60 one-dose screen, 48 h (100 = growth as untreated, 0 = no growth, -100 = all killed)
Settings: 10 µM unless noted
Compounds without any hit were thinned out: in the full panel of roughly 83,000, 20% have a hit.
Measured endpoint: growth (%)
# unit: % | format: bare number

Compound	growth [%]
Cn1ccnc1C(=O)/C=C/c1ccc(CNC(=O)c2ccc(F)cc2)cc1	60.6
C#C[C@]1(O)CC[C@H]2[C@@H]3CC=C4c5sc(-c6cccc(O)c6)nc5CC[C@]4(C)[C@H]3CC[C@@]21C	-52.7
Cn1ccnc1C(=O)/C=C/c1ccc(NC(=O)c2c(F)c(F)c(F)c(F)c2F)cc1	103
C[C@@H](Nc1c(C#N)cnc2ccc(-c3cnc(Cl)c(NS(C)(=O)=O)c3)cc12)c1ccccc1	-30
COc1cc(/C=C/C(=O)c2ccc(NC(=O)CSc3nnc(-c4ccc(-c5nc6ccc(Cl)cc6[nH]5)cc4)o3)cc2)cc(OC)c1OC	88.4
CCOc1ccccc1NC1=C(Cl)C(=O)c2nc(C)ccc2C1=O	101

For the compound shown here, Cc1cc(C)n(C(=O)c2sc(=S)n(-c3ccccc3)c2N=Nc2c(N)n[nH]c2N)n1 , give the reported growth. 109

For the compound shown here, COc1ccc(CCOc2cc3c(cc2OC)CCN(C(=O)NCc2cocn2)C3c2ccc(C)cc2C)cc1 (configuration not stated) , give the reported growth. 39.2
